The measured values listed here are drawn from patent US20200270125A1.

In this section, each of the binders is paired with its reported EC50.
test target: T1, human MASP-3 CCP1-CCP2-SP fragment (human)
T1 construct: limits of the assay construct are not restated; also called rMASP-3 (CCP1-CCP2-SP)
T1 chain: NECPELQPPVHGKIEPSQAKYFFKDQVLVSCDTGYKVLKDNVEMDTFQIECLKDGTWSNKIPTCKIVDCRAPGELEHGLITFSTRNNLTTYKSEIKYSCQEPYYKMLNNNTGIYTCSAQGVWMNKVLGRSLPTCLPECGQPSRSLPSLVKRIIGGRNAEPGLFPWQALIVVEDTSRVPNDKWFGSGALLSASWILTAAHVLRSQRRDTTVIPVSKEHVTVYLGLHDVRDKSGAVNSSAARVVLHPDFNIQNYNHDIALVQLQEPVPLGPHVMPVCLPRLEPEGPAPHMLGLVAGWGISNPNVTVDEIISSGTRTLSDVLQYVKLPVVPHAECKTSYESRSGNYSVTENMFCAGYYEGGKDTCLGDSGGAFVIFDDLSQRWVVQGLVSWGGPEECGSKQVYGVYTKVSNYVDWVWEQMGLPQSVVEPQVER
method summary: sandwich ELISA, MASP-3 CCP1-CCP2-SP captured by αM3-259
All answers are understood in nM, so give the number only.

1) MASP-3 mAb 4D5 (mouse-human chimeric IgG4) (antibody, V domains shown) VH: QVQLKQSGPELVKPGASVKLSCKASGYTFTTDDINWVKQRPGQGLEWIGWIYPRDDRTKYNDKFKDKATLTVDTSSNTAYMDLHSLTSEDSAVYFCSSLEDTYWGQGTLVAVSS VL: DIVMTQSPSSLAVSAGEKVTMTCKSSQSLLNSRTRKNYLAWYQQKPGQSPKLLIYWASTRESGVPDRFTGSGSGTDFSLTISSVQAEDLAVYYCKQSYNLYTFGGGTKLEIKR
0.058

In: Which EC50 is reported for this binder? MASP-3 mAb 2F2 (mouse-human chimeric IgG4) (antibody, V domains shown) VH: QVQLKQSGAELVTPGASVKMSCKASGYTFTTYPIEWMKQNHGKSLEWIGNFHPYNDDTKYNEKFKGKATLTVEKSSNTVYLELSRLTSDDSAVYFCARRVYYSYFWFGYWGHGTLVTVSS VL: DIVMTQSQKFMSTSVGDRVNVTCKASQNVGTHVAWYQQKPGQSPKALIYSASYRYSGVPDRFTGSGSGTDFTLTISNVQSEDLAEYFCQQYNSYPRALTFGAGTKLELKR
Out: 0.057

In: Which EC50 is reported for this binder? MASP-3 mAb 2F5 (mouse-human chimeric IgG4) (antibody, V domains shown) VH: EVQLQQPGAELVKPGASVKMSCKASGYTFTSYWITWVKQRPGQGLEWIGDIYPGSGSTNYNEKFKSKATLTVDTSSSTAYMQLSSLTSEDSAVYYCARRRYYATAWFAYWGQGTLVTVSS VL: DIVMTQSQKFMSTSVGDRVSITCKASQNVGTAVAWYQQKPGQSPKLLISSASNRYTGVPDRFTGSGSGTDFTLTISNMQSEDVADYFCQQYNSYPLTFGAGTKLELKR
Out: 0.073

In: Which EC50 is reported for this binder? MASP-3 mAb 49C11 (mouse-human chimeric IgG4) (antibody, V domains shown) VH: EVQLQQSGPVLVKPGASGKMSCKASGYKFTDYYMIWVKQSHGKSLEWIGVIKIYNGGTSYNQKFKGKATLTVDKSSSTAYMELNSLTSEDSAVYYCARGPSLYDYDPYWYFDVWGTGTTVTVSS VL: DVLMTQTPLSLPVSLGDQASFSCRSSQSLIHSNGNTYLHWYLQKPGQSPKLLIYKVSNRFSGVPDRFSGSGSGTDFTLKISRVEAEDLGVYFCSQSTHVPWTFGGGTKLEIKR
Out: 0.069
